Tested on: Mus musculus
method: Antidiabetic activity in C57BLKS/J-m+/+Leprdb db/db mouse assessed as reduction in plasma glucose levels at 10 mg/kg, po once daily for 11 days relative to control
Format: functional
Parameters: scale not given: the % may be the effect or the level left
# key: entry, value: Activity
Write the number in % without appending the unit.

Example compounds with recorded Activity:
{"columns": ["compound", "Activity (%)"],
 "data": [
  ["CC[C@@H](Oc1cccc(Cn2c(C)c(C(=O)c3ccc(Cl)cc3)c3ccc(OC(F)(F)F)cc32)c1)C(=O)O", 101],
  ["CN(CCOc1ccc(CC2SC(=O)NC2=O)cc1)c1ccccn1 (centres undefined)", 76]
]}

Value of Activity reported for the compound CCC[C@@H](Oc1cccc(Cn2c(C)c(C(=O)c3ccc(Cl)cc3)c3ccc(OC(F)(F)F)cc32)c1)C(=O)O is 94

Value of Activity reported for the compound Cc1c(C(=O)c2ccc(Cl)cc2)c2ccc(OC(F)(F)F)cc2n1Cc1cccc(O[C@H](C(=O)O)C(C)C)c1 is 76

---

assay-system: Peroxisome proliferator-activated receptor alpha (Canis lupus familiaris, UniProt Q95N78)
Sequence (Q95N78 whole entry): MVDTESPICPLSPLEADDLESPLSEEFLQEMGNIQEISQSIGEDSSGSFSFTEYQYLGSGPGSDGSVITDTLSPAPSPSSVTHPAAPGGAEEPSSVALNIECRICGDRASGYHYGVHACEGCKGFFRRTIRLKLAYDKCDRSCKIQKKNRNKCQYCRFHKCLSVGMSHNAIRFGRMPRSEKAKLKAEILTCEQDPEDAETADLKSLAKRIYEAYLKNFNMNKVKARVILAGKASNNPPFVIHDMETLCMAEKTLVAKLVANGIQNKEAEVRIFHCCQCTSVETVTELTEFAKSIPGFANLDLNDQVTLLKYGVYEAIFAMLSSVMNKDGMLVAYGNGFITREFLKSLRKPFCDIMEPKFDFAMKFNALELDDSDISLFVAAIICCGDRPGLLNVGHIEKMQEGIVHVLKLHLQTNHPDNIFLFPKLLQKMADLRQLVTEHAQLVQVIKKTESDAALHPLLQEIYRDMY
method: Agonist activity at dog PPARalpha receptor
observed-property: EC50 (nM)
Write the number in nM without appending the unit.

Value of EC50 reported for the compound CC[C@@H](Oc1cccc(Cn2c(C)c(C(=O)c3ccc(Cl)cc3)c3ccc(OC(F)(F)F)cc32)c1)C(=O)O is 0.55

---

method: Cmax in Syrian golden hamster at 3 mg/kg, po once daily for 9 days
Assay type: ADME, organism-based, Mesocricetus auratus
Set-up: dose 3 mg/kg, route oral
experimental-conditions: in vivo
observed-property: Cmax (nM)
Write the number in nM without appending the unit.

Value of Cmax reported for the compound CC[C@@H](Oc1cccc(Cn2c(C)c(C(=O)c3ccc(Cl)cc3)c3ccc(OC(F)(F)F)cc32)c1)C(=O)O is 600

---

assay-system: Peroxisome proliferator-activated receptor alpha (Mus musculus)
Sequence (P23204 whole entry, the tested form may be a part): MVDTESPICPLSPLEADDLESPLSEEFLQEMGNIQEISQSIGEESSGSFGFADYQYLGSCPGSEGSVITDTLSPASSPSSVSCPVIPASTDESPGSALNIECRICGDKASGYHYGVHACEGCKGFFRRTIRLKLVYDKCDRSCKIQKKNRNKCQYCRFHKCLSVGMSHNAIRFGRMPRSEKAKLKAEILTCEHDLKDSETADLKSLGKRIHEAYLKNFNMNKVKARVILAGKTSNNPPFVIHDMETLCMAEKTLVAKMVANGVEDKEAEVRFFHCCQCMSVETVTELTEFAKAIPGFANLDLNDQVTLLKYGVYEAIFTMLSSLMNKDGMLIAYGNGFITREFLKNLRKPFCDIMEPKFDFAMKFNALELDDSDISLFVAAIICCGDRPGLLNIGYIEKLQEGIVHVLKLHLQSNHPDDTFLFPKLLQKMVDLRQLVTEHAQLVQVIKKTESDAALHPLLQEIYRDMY
method: Agonist activity at mouse PPARalpha receptor expressed in african green monkey COS1 cells co-transfected with fused yeast Gal4-DBD by transactivation assay
Assay type: functional, cell-based, COS-1
observed-property: EC50 (nM)
Write the number in nM without appending the unit.

Example compounds with recorded EC50:
{"columns": ["structure-as-smiles", "observed-property", "reported-value"],
 "data": [
  ["CC[C@@H](Oc1cccc(Cn2c(C)c(C(=O)c3ccc(Cl)cc3)c3ccc(OC(F)(F)F)cc32)c1)C(=O)O", "EC50", 120],
  ["Cc1c(C(=O)c2ccc(Cl)cc2)c2ccc(OC(F)(F)F)cc2n1Cc1cccc(O[C@H](C(=O)O)C(C)C)c1", "EC50", 360],
  ["Cc1c(C(=O)c2ccc(Cl)cc2)c2ccc(OC(F)(F)F)cc2n1Cc1cccc(OCC(=O)O)c1", "EC50", 350]
]}

Value of EC50 reported for the compound Cc1c(C(=O)c2ccc(Cl)cc2)c2ccc(OC(F)(F)F)cc2n1Cc1cccc(OC2(C(=O)O)CCC2)c1 is 150
